System: 521955-158-R2-J5-PDC complex spheroid growth, % test/control;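 also: spheroids exposed to agents for 7 days before readout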
Experiment: Anticancer human tumor 521955-158-R2-J5-PDC patient-derived pancreatic carcinoma cell line growth inhibition [Asc]
Settings: curve of first compound; second compound 1 µM
propertyName: IC50

>  <compound>
C=CC(=O)N1CCN(c2nc(=O)n(-c3c(C)ccnc3C(C)C)c3nc(-c4c(O)cccc4F)c(F)cc23)C(C)C1 (stereo not given) + Cc1c(S(C)(=O)=O)c(-c2cc(F)cc(N3CCN(c4ccc(NS(=O)(=O)c5ccc(NC(CCN6CCC(C(=O)OCCCP(=O)(O)O)CC6)CSc6ccccc6)c(S(=O)(=O)C(F)(F)F)c5)cc4)CC3)c2)c(-c2ccc(Cl)cc2)n1C(C)C

>  <valueReported>
> 10000 nM

$$$$
>  <compound>
CCN1CCN(Cc2ccc(Nc3ncc(F)c(-c4cc(F)c5nc(C)n(C(C)C)c5c4)n3)nc2)CC1 + Cc1c(S(C)(=O)=O)c(-c2cc(F)cc(N3CCN(c4ccc(NS(=O)(=O)c5ccc(NC(CCN6CCC(C(=O)OCCCP(=O)(O)O)CC6)CSc6ccccc6)c(S(=O)(=O)C(F)(F)F)c5)cc4)CC3)c2)c(-c2ccc(Cl)cc2)n1C(C)C

>  <valueReported>
> 1000 nM

$$$$
>  <compound>
CNC(C)C(=O)NC1CN(S(=O)(=O)c2cccc(S(=O)(=O)N3CCC4CCC(C(=O)NC(c5ccccc5)c5ccccc5)N4C(=O)C(NC(=O)C(C)NC)C3)c2)CCC2CCC(C(=O)NC(c3ccccc3)c3ccccc3)N2C1=O (stereo not given) + Cc1c(S(C)(=O)=O)c(-c2cc(F)cc(N3CCN(c4ccc(NS(=O)(=O)c5ccc(NC(CCN6CCC(C(=O)OCCCP(=O)(O)O)CC6)CSc6ccccc6)c(S(=O)(=O)C(F)(F)F)c5)cc4)CC3)c2)c(-c2ccc(Cl)cc2)n1C(C)C

>  <valueReported>
> 1000 nM

$$$$
>  <compound>
COc1c(OCCCN2CCOCC2)ccc2c3n(c(=NC(=O)c4cnc(N)nc4)nc12)CCN3 + Cc1c(S(C)(=O)=O)c(-c2cc(F)cc(N3CCN(c4ccc(NS(=O)(=O)c5ccc(NC(CCN6CCC(C(=O)OCCCP(=O)(O)O)CC6)CSc6ccccc6)c(S(=O)(=O)C(F)(F)F)c5)cc4)CC3)c2)c(-c2ccc(Cl)cc2)n1C(C)C

>  <valueReported>
< 3.16 nM

$$$$
>  <compound>
Cn1ncnc1[C@H]1c2n[nH]c(=O)c3cc(F)cc(c23)N[C@@H]1c1ccc(F)cc1 + CNC(C)C(=O)NC1CN(S(=O)(=O)c2cccc(S(=O)(=O)N3CCC4CCC(C(=O)NC(c5ccccc5)c5ccccc5)N4C(=O)C(NC(=O)C(C)NC)C3)c2)CCC2CCC(C(=O)NC(c3ccccc3)c3ccccc3)N2C1=O

>  <valueReported>
> 100 nM

$$$$
